// data source = patent US20090018150A1

- MEASURED TARGET: cloned human 5-HT2C receptor (Homo sapiens, UniProt P28335)
- Construct: purchased Euroscreen; host or cells: CHO-K1
- Sequence (P28335 33-458): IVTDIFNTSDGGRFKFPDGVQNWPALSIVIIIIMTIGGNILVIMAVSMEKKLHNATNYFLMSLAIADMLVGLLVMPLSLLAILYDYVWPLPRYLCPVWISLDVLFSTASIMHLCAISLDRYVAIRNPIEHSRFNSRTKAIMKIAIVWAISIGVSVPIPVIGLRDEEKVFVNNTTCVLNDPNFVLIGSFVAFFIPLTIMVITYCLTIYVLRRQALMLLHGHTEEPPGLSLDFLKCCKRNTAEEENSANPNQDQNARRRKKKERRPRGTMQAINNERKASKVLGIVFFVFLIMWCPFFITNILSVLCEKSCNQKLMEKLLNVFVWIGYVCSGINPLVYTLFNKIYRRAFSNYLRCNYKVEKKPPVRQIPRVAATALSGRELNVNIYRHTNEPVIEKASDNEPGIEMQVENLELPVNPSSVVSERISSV
- ASSAY DETAILS: Human 5-HT2C receptor binding assay
- SETUP CONDITIONS: [3H]mesulergine (1 nM) displacement, CHO-K1 cell membranes; read-out: 5-HT2C pKi (converted)
Where a name gives a salt, the structure may show the parent alone.

COMPOUND: CC(=O)Nc1cccc(-c2cccc(Nc3cc(C)nc(N)n3)c2)c1 [Compound 10I, hydrochloride]
Ki: > 10 µM
//
COMPOUND: Cn1nc(Nc2ccc(-c3ccccc3)cc2)nc1N [Compound 411A, trifluoroacetic acid]
Ki: > 1 µM
//
COMPOUND: Cc1cc(Nc2ccc(Oc3ccccc3)cc2)nc(N)n1 [Compound 2AE, hydrochloride]
Ki: > 0.316 µM
//
COMPOUND: CC(=O)Nc1nc(-c2cccc3ccc(Br)cc23)c[nH]1 [Compound 103G]
Ki: > 1 µM
//
COMPOUND: Cc1cc(Nc2cccc(F)c2)nc(N)n1
Ki: > 1 µM
//
COMPOUND: Nc1ncc(-c2cccc(-c3ccccc3Cl)c2)o1 [Compound 209E]
Ki: > 10 µM
//
COMPOUND: COc1ccc(Nc2cc(C)nc(N)n2)cc1Cl [Compound 2AC, hydrochloride]
Ki: > 1 µM
//
COMPOUND: Cc1cccc(-c2cccc(-c3cnc(N)o3)c2)c1 [Compound 209B]
Ki: > 10 µM
//
COMPOUND: COc1ccccc1-c1cccc(-c2nc(N)oc2C)c1 [Compound 218C, trifluoroacetic acid]
Ki: > 1 µM
//
COMPOUND: Cc1[nH]c(N)nc1-c1cccc2ccccc12 [Compound 104I]
Ki: > 1 µM
//
COMPOUND: CC(=O)Nc1nc(-c2cccc3c(Br)cccc23)c[nH]1 [Compound 103H]
Ki: > 1 µM
//
COMPOUND: CC(=O)Nc1nc(-c2ccc(F)c3ccccc23)c[nH]1 [Compound 103F]
Ki: > 3.16 µM
//
COMPOUND: COc1ccccc1-c1cccc(-c2oc(N)nc2C)c1 [Compound 219B, trifluoroacetic acid]
Ki: > 1 µM
//
COMPOUND: Cc1cc(Nc2ccc(Cl)c(Cl)c2)nc(N)n1 [Compound 2N, hydrochloride]
Ki: > 1 µM
//
COMPOUND: COc1ccccc1-c1ccc(OC)c(-c2cnc(N)o2)c1 [Compound 224B, trifluoroacetic acid]
Ki: > 1 µM
//
COMPOUND: Nc1ncc(-c2cccc(-c3ccc(F)cc3)c2)o1 [Compound 209J, trifluoroacetic acid]
Ki: > 1 µM

* * *

Reported IC50 values for a set of molecules
- MEASURED TARGET: UniProt P41595
- ASSAY DETAILS: Human cloned 5-HT2B cell-based functional assay
- SETUP CONDITIONS: inhibition of 5-HT response, Fluo-4 AM, CHO.K1 cells expressing cloned 5-HT2B receptor
ENDPOINT: IC50

MOLECULE: COc1ccc2ccccc2c1-c1c[nH]c(NC(C)=O)n1 [Compound 103C]
ENDPOINT: IC50
RESULT: < 100 nM
//
MOLECULE: COc1ccccc1-c1cccc(-c2oc(N)nc2C)c1 [Compound 219B, trifluoroacetic acid]
ENDPOINT: IC50
RESULT: < 1000 nM
//
MOLECULE: Cc1cccc(-c2cccc(Nc3nc(N)nn3C)c2)c1 [Compound 406C]
ENDPOINT: IC50
RESULT: < 100 nM
//
MOLECULE: COc1ccc2ccccc2c1-c1c[nH]c(N)n1 [Compound 104C]
ENDPOINT: IC50
RESULT: < 1000 nM
//
MOLECULE: CC(=O)Nc1nc(-c2ccc(F)c3ccccc23)c[nH]1 [Compound 103F]
ENDPOINT: IC50
RESULT: < 100 nM
//
MOLECULE: COc1ccc2ccccc2c1-c1nc(N)[nH]c1C [Compound 104J]
ENDPOINT: IC50
RESULT: < 100 nM

* * *

- MEASURED TARGET: cloned human 5-HT2C receptor (Homo sapiens)
- Construct: purchased Euroscreen; host or cells: CHO-K1
- ASSAY DETAILS: Human 5-HT2C receptor binding assay
- SETUP CONDITIONS: [3H]mesulergine (1 nM) displacement, CHO-K1 cell membranes; read-out: 5-HT2C pKi (converted)
Structures can show the parent of a compound that is named as a salt.
ENDPOINT: Ki

MOLECULE: Cc1cc(Nc2ccc3ncsc3c2)nc(N)n1 [Compound 2AB, hydrochloride]
MEASURED TARGET: cloned human 5-HT2C receptor (Homo sapiens)
RESULT: > 1000 nM
--
MOLECULE: Cn1nc(N)nc1Nc1cccc(-c2ccccc2)c1 [Compound 406A]
MEASURED TARGET: cloned human 5-HT2C receptor (Homo sapiens)
RESULT: > 1000 nM
--
MOLECULE: COc1ccccc1-c1cccc(Nc2nc(N)nn2C)c1 [Compound 406B]
MEASURED TARGET: cloned human 5-HT2C receptor (Homo sapiens)
RESULT: > 1000 nM
--
MOLECULE: Cc1cc(Nc2cccc3c2CCC3)nc(N)n1 [Compound 2R, hydrochloride]
MEASURED TARGET: cloned human 5-HT2C receptor (Homo sapiens)
RESULT: > 1000 nM
--
MOLECULE: Nc1nc(-c2ccc(F)c3ccccc23)c[nH]1 [Compound 104F]
MEASURED TARGET: cloned human 5-HT2C receptor (Homo sapiens)
RESULT: > 1000 nM
--
MOLECULE: COc1ccc(-c2ccccc2)cc1-c1cnc(N)o1 [Compound 224A, trifluoroacetic acid]
MEASURED TARGET: cloned human 5-HT2C receptor (Homo sapiens)
RESULT: > 1000 nM
--
MOLECULE: Cc1cc(Nc2ccc(Br)cc2)nc(N)n1 [Compound 2F, hydrochloride]
MEASURED TARGET: cloned human 5-HT2C receptor (Homo sapiens)
RESULT: > 10000 nM
--
MOLECULE: Cc1cccc(-c2ccc(Nc3cc(C)nc(N)n3)cc2)c1 [Compound 11B]
MEASURED TARGET: cloned human 5-HT2C receptor (Homo sapiens)
RESULT: > 31.6 nM
--
MOLECULE: CC(=O)Nc1nc(-c2c(O)ccc3ccccc23)c[nH]1 [Compound 103Q]
MEASURED TARGET: cloned human 5-HT2C receptor (Homo sapiens)
RESULT: > 1000 nM

* * *

Reported values of Ki for individual entries
- MEASURED TARGET: human cloned 5-HT2B receptors (Homo sapiens, UniProt P41595)
- Construct: expressed in transfected cells; host or cells: CHO-K1
- Sequence (P41595 whole entry): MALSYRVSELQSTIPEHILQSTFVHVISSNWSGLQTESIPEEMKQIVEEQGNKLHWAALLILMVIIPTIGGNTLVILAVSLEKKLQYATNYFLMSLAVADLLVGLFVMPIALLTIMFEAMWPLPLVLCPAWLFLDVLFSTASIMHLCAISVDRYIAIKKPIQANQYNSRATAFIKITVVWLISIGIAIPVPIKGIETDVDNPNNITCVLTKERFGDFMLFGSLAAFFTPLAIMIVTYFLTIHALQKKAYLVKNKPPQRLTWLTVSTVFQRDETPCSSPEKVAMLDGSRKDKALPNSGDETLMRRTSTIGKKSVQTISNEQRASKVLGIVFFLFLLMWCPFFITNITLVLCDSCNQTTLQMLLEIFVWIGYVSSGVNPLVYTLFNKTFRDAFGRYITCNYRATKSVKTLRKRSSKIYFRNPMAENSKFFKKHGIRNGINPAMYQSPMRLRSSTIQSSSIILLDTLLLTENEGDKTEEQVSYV
- ASSAY DETAILS: Human cloned 5-HT2B receptor binding assay
- SETUP CONDITIONS: [3H]LSD (1 nM) displacement, membranes of CHO-K1 cells expressing cloned 5-HT2B receptor; read-out: 5-HT2B pKi (converted)
Where a name gives a salt, the structure may show the parent alone.

COMPOUND: Nc1nc(-c2cccc3c(Br)cccc23)c[nH]1 [Compound 104H]
Ki: < 0.1 µM
--
COMPOUND: Cc1cccc(-c2cccc(-c3cnc(N)o3)c2)c1 [Compound 209B]
Ki: < 0.316 µM
--
COMPOUND: COc1ccc(-c2c[nH]c(NC(C)=O)n2)c2ccccc12 [Compound 103B]
Ki: < 1 µM
--
COMPOUND: Cc1cccc(-c2cccc(Nc3nc(N)nn3C)c2)c1 [Compound 406C]
Ki: < 0.1 µM
--
COMPOUND: Cc1cc(Nc2cccc(O)c2)nc(N)n1 [Compound 2Q, hydrochloride]
Ki: < 1 µM
--
COMPOUND: Cc1nc(N)oc1-c1cccc(-c2ccccc2)c1 [Compound 219A, trifluoroacetic acid]
Ki: < 0.316 µM
--
COMPOUND: COc1ccc(-c2c[nH]c(N)n2)c2ccccc12 [Compound 104B]
Ki: < 0.1 µM
--
COMPOUND: CC(C)c1[nH]c(N)nc1-c1cccc2ccccc12 [Compound 104K]
Ki: < 0.1 µM
--
COMPOUND: COc1ccc(-c2cccc(Nc3cc(C)nc(N)n3)c2)cc1OC [Compound 10B, trifluoroacetic acid]
Ki: < 1 µM

* * *

- MEASURED TARGET: cloned human 5-HT2A receptor (Homo sapiens, UniProt P28223)
- Construct: purchased Euroscreen; host or cells: CHO-K1
- Sequence (P28223 whole entry): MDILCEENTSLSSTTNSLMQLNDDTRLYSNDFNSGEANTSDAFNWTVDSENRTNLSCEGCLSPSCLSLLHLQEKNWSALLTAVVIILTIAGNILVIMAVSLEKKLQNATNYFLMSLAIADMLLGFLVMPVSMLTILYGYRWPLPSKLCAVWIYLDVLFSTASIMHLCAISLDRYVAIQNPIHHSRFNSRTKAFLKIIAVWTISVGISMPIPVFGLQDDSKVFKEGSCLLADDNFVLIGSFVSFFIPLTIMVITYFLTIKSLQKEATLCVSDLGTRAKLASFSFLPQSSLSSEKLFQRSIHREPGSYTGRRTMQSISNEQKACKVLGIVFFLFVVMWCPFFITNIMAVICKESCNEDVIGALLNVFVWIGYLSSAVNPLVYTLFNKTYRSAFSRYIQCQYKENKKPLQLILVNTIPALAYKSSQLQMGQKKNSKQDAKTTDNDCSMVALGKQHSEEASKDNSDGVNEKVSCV
- ASSAY DETAILS: Human 5-HT2A receptor binding assay
- SETUP CONDITIONS: [3H]ketanserin (1 nM) displacement, CHO-K1 cell membranes; read-out: 5-HT2A pKi (converted)
Where a name gives a salt, the structure may show the parent alone.

COMPOUND: Nc1ncc(-c2cccc(-c3ccccc3)c2)o1 [Compound 209A, 5-Biphenyl-3-yl-oxazol-2-ylamine]
Ki: > 10000 nM
//
COMPOUND: Cn1nc(N)nc1Nc1cccc(-c2ccccc2)c1 [Compound 406A]
Ki: > 1000 nM
//
COMPOUND: CC(=O)Nc1nc(-c2ccc(F)c3ccccc23)c[nH]1 [Compound 103F]
Ki: > 3160 nM
//
COMPOUND: Cc1cc(Nc2ccc(Cl)c(Cl)c2)nc(N)n1 [Compound 2N, hydrochloride]
Ki: > 1000 nM
//
COMPOUND: COc1ccc(-c2cccc(Nc3cc(C)nc(N)n3)c2)cc1OC [Compound 10B, trifluoroacetic acid]
Ki: > 10000 nM
//
COMPOUND: Cc1cc(Nc2cc(Br)ccc2O)nc(N)n1 [Compound 2O, hydrochloride]
Ki: > 1000 nM
//
COMPOUND: CC(C)c1[nH]c(N)nc1-c1cccc2ccccc12 [Compound 104K]
Ki: > 100 nM
//
COMPOUND: Nc1nc(-c2cccc3c(Br)cccc23)c[nH]1 [Compound 104H]
Ki: > 316 nM
//
COMPOUND: Cc1cccc(-c2ccc(Nc3nc(N)nn3C)cc2)c1 [Compound 410C, trifluoroacetic acid]
Ki: > 1000 nM
